Test: modulators of glucocorticoid suppression of NF-kB, cell-based, luciferase, IL-1B stimulus, dexamethasone (AID 624486)
Conditions: NF-kB luciferase reporter, IL-1B + dexamethasone, luminescence; measured here: IL-1B alone, no Dex
z-score: recorded values
Lab note: jot down the number only; don't add units.

Would you please look over these solved cases?
{"Compound": "Nc1c(C(=O)c2ccccc2)cnn1-c1ccc(F)cc1", "Measured Value": 5.57}
{"Compound": "COc1ccc(Nc2ncc(-c3ccccc3)o2)cc1OC", "Measured Value": 4.41}
{"Compound": "Cc1ccc(-c2cc3c(NC(=O)C4CC4)ncnc3o2)cc1", "Measured Value": -0.295}
{"Compound": "O=C1NC(=NCCc2ccc(F)cc2)SC1=Cc1ccc2ncccc2c1", "Measured Value": 0.5}

Task: # input compound: O=C1NC(=NCc2c(Cl)cccc2Cl)SC1=Cc1ccc2ncccc2c1 ; wanted: its z-score
Output: 0.16

Task: # input compound: CCC(=O)Nc1ccc(C)c(-c2ccc(C(=O)NCC3CC3)cc2)c1 ; wanted: its z-score
Output: 1.16

Task: # input compound: COCC(N=C1NC(=O)C(=Cc2ccc3ncccc3c2)S1)c1ccccc1 (stereo not given) ; wanted: its z-score
Output: 0.145

Task: # input compound: Nc1c(C(=O)c2cccc(-c3cccnc3)c2)cnn1-c1ccc(F)cc1 ; wanted: its z-score
Output: 0.475

Task: # input compound: CCCN1CCC(Oc2cc(Nc3nc(Nc4cccc(F)c4C(N)=O)c4cc[nH]c4n3)c(OC)cc2Cl)CC1 ; wanted: its z-score
Output: -0.445

Task: # input compound: Cn1cc(C2=C(c3cn(CCCO)c4ccccc34)C(=O)NC2=O)c2ccccc21 ; wanted: its z-score
Output: -0.1

Task: # input compound: CCS(=O)(=O)c1ccc(OC)c(Nc2ncc(-c3cccc(F)c3)o2)c1 ; wanted: its z-score
Output: -0.335

Task: # input compound: COc1ccc2cc(-c3c(-c4ccncc4)nc(-c4ccc(S(C)(=O)=O)cc4C)n3C)ccc2c1 ; wanted: its z-score
Output: 0.22

###

Test: ovarian cancer cell viability with rucaparib, profiling panel, oncology-focused library, rucaparib conditional (AID 1508598)
Conditions: patient-derived ovarian cancer cells, CellTiter-Glo viability, 144 h; at 0.0781 µM; OCI-P5x cells; with rucaparib 20 µM; 100% = cells with rucaparib alone
Calls of active or inactive are those of the source.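 Rule for the calls: active = normalized viability below 100% at a tested concentration; inactive = the rest.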
Outcomes you can answer with include only these: T (active), F (inactive)

Solved entries (count: 5):
{"Compound": "O=c1[nH]cnc2[nH]ncc12", "Category": "T"}
{"Compound": "O=C1CCC(N2C(=O)c3ccccc3C2=O)C(=O)N1 (stereo unspecified)", "Category": "F"}
{"Compound": "CCN(CC)C(=S)SSC(=S)N(CC)CC", "Category": "F"}
{"Compound": "S=c1nc[nH]c2nc[nH]c12", "Category": "T"}
{"Compound": "CC1=C(/C=C/C(C)=C/C=C/C(C)=C/C(=O)O)C(C)(C)CCC1", "Category": "F"}

Task: Given NC(=O)c1ccc(-c2nc(-c3ccc4c(c3)OCO4)c(-c3ccccn3)[nH]2)cc1 , state the outcome it received in this test.
Output: F

###

viability: recorded values
Assay: ovarian cancer cell viability with rucaparib, profiling panel, oncology-focused library, rucaparib conditional (AID 1508598)
Settings: patient-derived ovarian cancer cells, CellTiter-Glo viability, 144 h; at 0.000305 µM; OCI-C5x cells; with rucaparib 10 µM; stronger effect = lower value; 100% = cells with rucaparib alone
Output spec: scalar in %, unitless text.

Would you please look over these solved cases?
{"Compound": "CN(CCOc1ccc(CC2SC(=O)NC2=O)cc1)c1ccccn1 (stereo not drawn)", "Unit Abbrev": "%", "viability": 112}
{"Compound": "CCCCCCNC(=O)n1cc(F)c(=O)[nH]c1=O", "Unit Abbrev": "%", "viability": 125}

Let's switch to this compound now.
Task: # input compound: CC(C)C(=O)Nc1ccc([N+](=O)[O-])c(C(F)(F)F)c1 ; wanted: its viability
Output: 102

Data provenance is PubChem BioAssay.
